Consider molecules characterized by their Kd with RARγ (Homo sapiens, UniProt P13631).
Sequence (P13631 whole entry, species assumed): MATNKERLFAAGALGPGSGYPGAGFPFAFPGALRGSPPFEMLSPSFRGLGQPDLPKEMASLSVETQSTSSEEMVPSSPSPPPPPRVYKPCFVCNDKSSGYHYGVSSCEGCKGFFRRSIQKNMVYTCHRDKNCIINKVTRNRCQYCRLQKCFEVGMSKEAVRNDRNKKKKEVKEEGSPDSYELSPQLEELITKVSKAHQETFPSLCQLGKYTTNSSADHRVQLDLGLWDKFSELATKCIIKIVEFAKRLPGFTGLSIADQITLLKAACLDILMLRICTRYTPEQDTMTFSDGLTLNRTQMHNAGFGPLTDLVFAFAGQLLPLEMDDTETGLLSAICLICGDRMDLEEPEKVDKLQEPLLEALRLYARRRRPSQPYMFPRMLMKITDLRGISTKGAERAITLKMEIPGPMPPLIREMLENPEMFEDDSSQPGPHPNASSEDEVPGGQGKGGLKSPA
VALUE_TYPE: Kd (nM)

Known results for molecules:
CCO/N=C1\CCC(C)(C)c2ccc(/C(C)=C/C=C/C(C)=C/C(=O)O)cc21 ... 42
CC1(C)CCC(OC2CCCCO2)c2cc(C(=O)Oc3ccc(C(=O)O)cc3)ccc21 (single isomer, unassigned) ... 375
CO/N=C1\CCC(C)(C)c2ccc(N=Nc3ccc(C(=O)O)cc3)cc21 ... 363
CC(C)=C1CCC(C)(C)c2ccc(C(=O)Oc3ccc(C(=O)O)cc3)cc21 ... 455

A: CC1(C)CCC(=O)c2cc(/C=C/c3ccc(C(=O)O)cc3)ccc21
B: CCO/N=C1\CCC(C)(C)c2ccc(/C=C/c3ccc(C(=O)O)cc3)cc21
C: CCC(CC)=C1CCC(C)(C)c2ccc(/C=C/c3ccc(C(=O)O)cc3)cc21
Q. Would you mind ranking these molecules by ascending Kd? Answer format: the labels, ordered as requested.
A. C, B, A

* * *

MEASURED_ON: UniProt P10276
Sequence (P10276 whole entry, species assumed): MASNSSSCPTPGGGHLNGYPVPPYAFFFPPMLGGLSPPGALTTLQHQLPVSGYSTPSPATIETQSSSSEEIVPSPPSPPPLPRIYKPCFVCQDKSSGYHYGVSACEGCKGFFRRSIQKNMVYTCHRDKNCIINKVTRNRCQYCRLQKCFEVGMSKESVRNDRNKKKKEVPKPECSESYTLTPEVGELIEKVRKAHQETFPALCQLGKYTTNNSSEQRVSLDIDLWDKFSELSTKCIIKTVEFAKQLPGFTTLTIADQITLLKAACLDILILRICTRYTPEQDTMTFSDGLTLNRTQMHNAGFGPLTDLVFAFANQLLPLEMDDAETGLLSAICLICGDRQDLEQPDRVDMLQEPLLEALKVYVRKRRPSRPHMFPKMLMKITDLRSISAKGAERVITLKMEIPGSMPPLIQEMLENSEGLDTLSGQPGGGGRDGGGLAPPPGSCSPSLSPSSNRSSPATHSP
TEST_DETAILS: Ligand binding assay
VALUE_TYPE: Kd (nM)

Known results for compounds:
CC1(C)CCC2(SCCCS2)c2cc(/C=C/c3ccc(C(=O)O)cc3)ccc21 ... 283
CCO/N=C1\CCC(C)(C)c2ccc(/C=C/c3ccc(C(=O)O)cc3)cc21 ... 125
CC(C)(C)C1=CCC(C)(C)c2ccc(C(=O)Nc3ccc(C(=O)O)cc3)cc21 ... 394

1: CC1(C)CC=C(S(=O)(=O)c2ccccc2)c2cc(C(=O)Oc3ccc(C(=O)O)cc3)ccc21
2: CCO/N=C1\CCC(C)(C)c2ccc(/C(C)=C/C=C/C(C)=C/C(=O)O)cc21
Q. Look at 1 and 2 . Which one has the lower recorded Kd number? State your choice using its label.
A. 2

* * *

Target sequence: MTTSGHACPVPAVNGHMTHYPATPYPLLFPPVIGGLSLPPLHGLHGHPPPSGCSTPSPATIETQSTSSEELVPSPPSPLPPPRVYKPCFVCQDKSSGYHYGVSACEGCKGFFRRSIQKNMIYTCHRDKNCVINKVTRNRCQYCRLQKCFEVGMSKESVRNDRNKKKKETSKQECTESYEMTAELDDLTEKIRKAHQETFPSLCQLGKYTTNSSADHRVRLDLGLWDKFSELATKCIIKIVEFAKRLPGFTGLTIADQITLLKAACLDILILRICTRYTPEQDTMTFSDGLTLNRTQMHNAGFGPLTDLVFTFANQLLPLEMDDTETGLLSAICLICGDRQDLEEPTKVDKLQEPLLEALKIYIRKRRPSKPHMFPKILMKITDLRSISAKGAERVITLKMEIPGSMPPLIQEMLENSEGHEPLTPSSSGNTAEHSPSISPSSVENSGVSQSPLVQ
pKd: −log10 of the molar value.
VALUE_TYPE: pKd

Known results for compounds:
CC1(C)CC=C(S(=O)(=O)c2ccccc2)c2cc(C(=O)Oc3ccc(C(=O)O)cc3)ccc21 ... 6.27
CC(C)=C1CCC(C)(C)c2ccc(C(=O)Nc3ccc(C(=O)O)cc3)cc21 ... 6.42

A: CC(C)(C)C1=CCC(C)(C)c2ccc(C(=O)Nc3ccc(C(=O)O)cc3)cc21
B: CC(C)=C1CCC(C)(C)c2ccc(C(=O)Oc3ccc(C(=O)O)cc3)cc21
C: CO/N=C1\CCC(C)(C)c2ccc(N=Nc3ccc(C(=O)O)cc3)cc21
Q. Hey, quick one: sort these by pKd, largest value first please. Answer format: the labels, ordered as requested.
A. B, C, A
